- Tested on: 885512-296-R-J2-PDC complex spheroid viability;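 note: spheroids exposed to agents for 7 days before viability read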
- Test: Anticancer human tumor 885512-296-R-J2-PDC patient-derived breast carcinoma cell line growth inhibition
- Condition Label: second compound 0.1 µM; first compound 0.949 µM; stronger effect = lower value
- Source text: Multicellular complex tumor spheroid response to LSD1 Inhibitor Iadademstat in combination with a variety of drugs and investigational agents in selected tumor cell lines The current study was undertaken to assess response to LSD1 inhibitors in combination with standard-of-care drugs and investigational agents in solid tumor complex spheroid models as well as in the K-562 leukemia. […] Compounds. […] If the clinical Cmax for an agent had not been determined, the highest concentration tested was 10 microM. […]
Observation Type: viability, T/C (%)
Numbers only, in %.

[
  {
    "Compound": "O=C(C=Cc1cccc(S(=O)(=O)Nc2ccccc2)c1)NO + NC1CCC(NC2CC2c2ccccc2)CC1",
    "Observation Type": "viability, T/C",
    "Measured Number": 13.6
  },
  {
    "Compound": "Nc1ccccc1NC(=O)c1ccc(CNC(=O)OCc2cccnc2)cc1 + NC1CCC(NC2CC2c2ccccc2)CC1",
    "Observation Type": "viability, T/C",
    "Measured Number": 16.7
  }
]

The compound listed as COc1cc(C2c3cc4c(cc3C(OC3OC5COC(C)OC5C(O)C3O)C3COC(=O)C23)OCO4)cc(OC)c1O (stereo not drawn) + NC1CC1c1ccc(-c2cccc(O)c2)cc1 has a reported viability, T/C of 3.81
